Below is a list of entries, each paired with its recorded z-score value.
# Measurement Description: growth of efflux-deficient E. coli DRC39 – strain DRC39, OD650, 24 h, E. coli filamentation inducers, primary screen (AID 1178);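 note: growth measured as culture turbidity by optical density at 650 nm; test concentration not given here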
# Condition Parameters: E. coli DRC39 acrAB, higher = more signal, called active from +8 up or from −8 down
Just the number, please, no unit after it.

Study these solved cases before continuing.
{"Compound": "COc1ccc(C(=O)Nc2ccc(CN3C(=O)[C@]4(O[C@H](CC(=O)N5CCC[C@H]5CO)[C@@H]([Si](C)(C)c5ccc(OC)cc5)[C@@H]4C)c4ccccc43)cc2)cc1", "Meas Value": -0.0895}
{"Compound": "Cc1ccc(S[C@]2(C(=O)O)CC(=O)N(Cc3ccccc3C(F)(F)F)[C@@H]2c2ccc(CO)cc2I)cc1", "Meas Value": 0.0985}
{"Compound": "COc1ccc([Si](C)(C)[C@@H]2[C@@H](CCO)O[C@]3(C(=O)N(Cc4cccc(N5CCOC5=O)c4)c4ccccc43)[C@H]2C)cc1", "Meas Value": 1.4}
{"Compound": "O=C1NC(=O)C2C1C=CC(C(O)C=Cc1ccc([N+](=O)[O-])cc1)N2Nc1ccc(Cl)cc1Cl (configuration not stated)", "Meas Value": 0.178}
{"Compound": "C[N+](C)(C)CCCCCCNC(=O)[C@H]1C[C@H]2C(=O)N[C@@H](Cc3ccccc3)C(=O)N2[C@H]1c1cccc(OCCO)c1", "Meas Value": 0.395}
{"Compound": "COCCCNC(=O)[C@@]1(Cc2ccccc2CN=[N+]=[N-])N=C(c2ccc(OCCCO)cc2)O[C@H]1c1ccccc1CN=[N+]=[N-]", "Meas Value": 2.15}

--- query ---
Value lookup for z-score; key = CS(=O)(=O)CCOC(=O)C1=CC(CCCO)=CC(C2CC2)N(Cc2cc3c(cc2Br)OCO3)C=C1C(=O)OCCS(C)(=O)=O (configuration not stated) 1.17

* * *

# Measurement Description: growth modulation of vineyard yeast isolate – strain RM11-1a, OD600, basal, 24 h, primary screen (AID 1177);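 note: cultures grown under basal conditions with no added stressor; test concentration not given here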
# Condition Parameters: S. cerevisiae RM11-1a growth, OD600, 24 h, called active from +8 up or from −8 down
The source made the active and inactive calls.
// allowed return values: active, inactive

Record excerpt, results attached:
{"Compound": "O=C1O[C@@H](c2ccccc2)[C@@H](c2ccccc2)N2[C@@H](c3ccccc3OCCO)[C@]3(C(=O)Nc4ccc(C#CC5(O)CCCCCC5)cc43)[C@@H](C(=O)N3CCN(c4ncccn4)CC3)[C@H]12", "Classification": "inactive"}
{"Compound": "COc1ccc([Si](C)(C)[C@@H]2[C@@H](CCn3cc([C@H](O)c4ccccc4)nn3)O[C@]3(C(=O)N(Cc4cccc(N5CCC5=O)c4)c4ccccc43)[C@H]2C)cc1", "Classification": "inactive"}
{"Compound": "Cc1ccc(S[C@]2(C(=O)O)CC(=O)N(C(C)C)[C@@H]2c2ccc(CO)cc2)cc1", "Classification": "inactive"}
{"Compound": "COC(=O)[C@H](Cc1ccccc1)N[C@H](/C=C/C1CC1)[C@@H](O)Cc1ccccc1", "Classification": "inactive"}
{"Compound": "COCCOC(=O)N1C(=O)[C@@]2(c3cc(C#CC4(O)CCCCCC4)ccc31)[C@H](C(=O)Nc1nc3ccccc3s1)[C@H]1C(=O)O[C@H](c3ccccc3)[C@H](c3ccccc3)N1[C@@H]2c1ccccc1OCCO", "Classification": "inactive"}

# outcome recorded in this test, key = `O=C1[C@@]23C=C(Br)[C@H](C[C@@H]2COC3)[C@]12CO2` inactive

Follow-up item: `COc1cc2c(cc1OC)CN(C(=O)[C@H]1[C@@H]3C(=O)O[C@@H](c4ccccc4)[C@@H](c4ccccc4)N3[C@@H](c3ccccc3OCCO)[C@]13C(=O)Nc1ccc(C#CCCO)cc13)CC2` inactive
